pIC50: −log10 of the molar value.
Lab note: pIC50 readings collected with BSEP (Homo sapiens) for the following compounds.
Sequence (O95342 whole entry): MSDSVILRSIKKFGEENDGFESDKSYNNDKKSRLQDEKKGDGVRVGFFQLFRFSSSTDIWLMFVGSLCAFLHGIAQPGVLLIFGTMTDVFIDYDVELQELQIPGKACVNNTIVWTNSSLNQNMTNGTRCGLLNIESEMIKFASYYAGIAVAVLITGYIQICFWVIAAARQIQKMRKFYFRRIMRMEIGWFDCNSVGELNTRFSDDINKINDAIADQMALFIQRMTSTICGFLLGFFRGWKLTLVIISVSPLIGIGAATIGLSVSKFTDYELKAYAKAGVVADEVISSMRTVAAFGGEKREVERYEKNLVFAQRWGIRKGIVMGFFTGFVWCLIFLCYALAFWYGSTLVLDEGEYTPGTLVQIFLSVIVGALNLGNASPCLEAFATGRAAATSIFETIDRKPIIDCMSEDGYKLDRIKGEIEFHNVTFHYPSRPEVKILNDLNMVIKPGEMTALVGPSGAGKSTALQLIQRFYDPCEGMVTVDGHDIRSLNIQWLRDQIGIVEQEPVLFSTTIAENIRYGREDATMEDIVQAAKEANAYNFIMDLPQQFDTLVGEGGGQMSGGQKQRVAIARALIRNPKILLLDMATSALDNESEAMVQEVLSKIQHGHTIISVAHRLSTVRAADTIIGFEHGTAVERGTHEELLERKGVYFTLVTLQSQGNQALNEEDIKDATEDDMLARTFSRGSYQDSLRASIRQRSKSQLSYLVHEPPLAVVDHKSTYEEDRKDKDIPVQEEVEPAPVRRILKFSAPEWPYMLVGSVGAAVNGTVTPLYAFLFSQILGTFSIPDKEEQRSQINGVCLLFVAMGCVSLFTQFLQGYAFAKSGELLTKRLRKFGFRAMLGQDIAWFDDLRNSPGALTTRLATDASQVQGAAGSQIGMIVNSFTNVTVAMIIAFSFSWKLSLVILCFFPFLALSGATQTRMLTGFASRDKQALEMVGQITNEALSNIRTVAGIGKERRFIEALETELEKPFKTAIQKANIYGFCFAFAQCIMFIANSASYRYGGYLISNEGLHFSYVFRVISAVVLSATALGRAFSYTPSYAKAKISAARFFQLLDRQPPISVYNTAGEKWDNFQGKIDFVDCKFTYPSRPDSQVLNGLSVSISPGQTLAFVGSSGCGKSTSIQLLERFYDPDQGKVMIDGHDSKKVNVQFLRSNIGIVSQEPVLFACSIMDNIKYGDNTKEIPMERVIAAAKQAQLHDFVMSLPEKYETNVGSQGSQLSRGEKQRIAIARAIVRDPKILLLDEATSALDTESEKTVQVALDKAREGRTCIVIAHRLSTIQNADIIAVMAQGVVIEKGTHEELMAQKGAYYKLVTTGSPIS

{"cpd-smiles": "C[C@H](NC(=O)Cn1nnc2ccc(O[C@@H]3O[C@H](C(=O)O)[C@@H](O)[C@H](O)[C@H]3O)cc2c1=O)c1ccc(OC(F)(F)F)cc1", "test-readout": "pIC50", "observed-value": "< 3.70"}

Could you now look at the following compound, please?
Inquiry: Can you share its pIC50? I mean this compound: C[C@H](NC(=O)Cn1nnc2ccccc2c1=O)c1ccc(OC(F)(F)F)cc1
Reply text: < 3.70

---

# measured-on: MRP4 (Homo sapiens, UniProt O15439)
# Sequence (O15439 whole entry): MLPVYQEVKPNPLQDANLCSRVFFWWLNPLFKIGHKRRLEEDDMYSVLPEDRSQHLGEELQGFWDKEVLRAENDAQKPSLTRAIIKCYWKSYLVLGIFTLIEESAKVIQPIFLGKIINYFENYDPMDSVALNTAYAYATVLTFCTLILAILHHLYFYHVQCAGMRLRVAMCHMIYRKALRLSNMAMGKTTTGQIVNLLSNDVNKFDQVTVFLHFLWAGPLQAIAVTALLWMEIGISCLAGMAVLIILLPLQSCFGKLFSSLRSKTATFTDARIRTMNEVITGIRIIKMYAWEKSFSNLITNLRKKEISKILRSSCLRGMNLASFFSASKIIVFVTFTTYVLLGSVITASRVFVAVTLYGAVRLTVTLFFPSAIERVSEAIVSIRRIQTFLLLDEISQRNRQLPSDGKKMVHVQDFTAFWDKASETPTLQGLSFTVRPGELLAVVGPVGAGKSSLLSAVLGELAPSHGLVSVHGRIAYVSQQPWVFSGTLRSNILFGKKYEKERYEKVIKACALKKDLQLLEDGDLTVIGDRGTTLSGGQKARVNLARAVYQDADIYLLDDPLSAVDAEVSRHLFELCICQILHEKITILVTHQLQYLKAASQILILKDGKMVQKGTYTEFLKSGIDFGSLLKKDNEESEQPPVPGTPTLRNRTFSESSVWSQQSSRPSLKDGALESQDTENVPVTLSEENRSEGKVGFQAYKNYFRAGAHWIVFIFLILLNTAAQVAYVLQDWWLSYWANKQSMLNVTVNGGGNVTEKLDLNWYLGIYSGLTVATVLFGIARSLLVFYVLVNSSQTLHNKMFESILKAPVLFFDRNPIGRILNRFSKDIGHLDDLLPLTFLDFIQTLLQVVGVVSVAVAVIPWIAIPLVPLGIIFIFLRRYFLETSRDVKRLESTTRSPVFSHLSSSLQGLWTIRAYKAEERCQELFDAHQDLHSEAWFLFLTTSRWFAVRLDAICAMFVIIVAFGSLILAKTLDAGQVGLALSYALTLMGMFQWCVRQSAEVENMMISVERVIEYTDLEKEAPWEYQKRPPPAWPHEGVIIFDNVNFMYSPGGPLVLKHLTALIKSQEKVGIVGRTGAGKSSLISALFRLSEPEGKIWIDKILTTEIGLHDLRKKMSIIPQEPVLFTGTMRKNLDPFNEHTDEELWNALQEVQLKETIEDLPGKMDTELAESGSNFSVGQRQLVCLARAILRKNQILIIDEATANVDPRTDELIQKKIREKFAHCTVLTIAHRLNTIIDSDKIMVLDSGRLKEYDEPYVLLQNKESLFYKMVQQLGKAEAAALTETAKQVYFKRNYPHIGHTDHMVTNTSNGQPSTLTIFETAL
pIC50: −log10 of the molar value.
test-readout: pIC50

Inquiry: Given C[C@H](NC(=O)Cn1nnc2ccccc2c1=O)c1ccc(OC(F)(F)F)cc1 [Compound A] , state its recorded pIC50.
Reply text: < 3.70
